Overview of reported inhibition at 1 µM across a group of compounds:
SYSTEM_UNDER_TEST: dopaminergic D2 receptor (Homo sapiens)
Sequence (P14416 1-414 isoform P14416-2): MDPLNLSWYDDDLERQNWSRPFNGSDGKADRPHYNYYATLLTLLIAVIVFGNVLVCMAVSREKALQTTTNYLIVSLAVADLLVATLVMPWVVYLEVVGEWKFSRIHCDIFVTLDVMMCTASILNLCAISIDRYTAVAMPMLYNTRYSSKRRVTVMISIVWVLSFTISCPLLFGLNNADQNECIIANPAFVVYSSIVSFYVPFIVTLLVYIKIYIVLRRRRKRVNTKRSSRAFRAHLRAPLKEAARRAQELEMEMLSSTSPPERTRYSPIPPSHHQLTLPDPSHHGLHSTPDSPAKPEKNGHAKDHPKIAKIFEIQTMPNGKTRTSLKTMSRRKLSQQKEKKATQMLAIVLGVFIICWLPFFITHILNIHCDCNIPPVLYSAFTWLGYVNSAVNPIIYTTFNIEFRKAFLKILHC
METHOD: Binding assay D2S (h), [3H]methyl-spiperone, HEK-293 cells
Parameters: expressed in transfected cells; host or cells: HEK-293 cells
TEST_CONTEXT: read-out: D2 [%]
Give the number; % is assumed, so skip it.

Sample answers from the record:
| COMPOUND | RECORDED_VALUE |
| --- | --- |
| O=S(=O)(NCCCCN1CCN(c2cccc3[nH]ccc23)CC1)c1ccccc1 [Compound 27] | 90 |
| O=c1[nH]c2cccc(N3CCN(CCCCNS(=O)(=O)c4ccc5ccccc5c4)CC3)c2[nH]1 [Compound 419] | 93 |
| O=c1[nH]c2cccc(N3CCN(CCCNS(=O)(=O)c4cccc5ccccc45)CC3)c2[nH]1 [Compound 423] | 97 |
| O=S(=O)(NCCCCN1CCN(c2nsc3ccccc23)CC1)c1cccs1 [Compound 238] | 87 |
| Cc1c(S(=O)(=O)NCCCN2CCC(c3noc4cc(F)ccc34)CC2)sc2ccc(F)cc12 [Compound 102] | 100 |

input: Which inhibition at 1 µM is reported for this compound? O=S(=O)(NCCCN1CCN(c2nsc3ccccc23)CC1)c1ccc(F)c(Cl)c1 [Compound 64]
output: 98

input: Also O=S(=O)(NCCCCN1CCC(c2noc3cc(F)ccc23)CC1)c1cccc(Br)c1 [Compound 109] ?
output: 100

input: Also O=S(=O)(NCCCCN1CCN(c2cccc3c2OCCO3)CC1)c1cccc(O)c1 [Compound 393] ?
output: 46

input: Also Cc1c(S(=O)(=O)NCCCCN2CCN(c3cccc4[nH]ccc34)CC2)sc2ccc(F)cc12 [Compound 364] ?
output: 100
